Record form. Attribute: TGI. Fill in for each entry.
Test system: OVCAR-4 ovarian
METHOD DESCRIPTION: NCI tumour cell line growth inhibition, 48 h

Observe how each entry below is paired with its result.
MOLECULE	REPORTED RESULT
Cc1cccc2c1Oc1ccccc1C2NC(=O)c1ccc([N+](=O)[O-])cc1 (stereo not drawn)	> 100 µM
CC(=O)Oc1cc(OC(C)=O)c2c(=O)c3ccccc3[nH]c2c1	> 100 µM
Cc1cccc(Oc2nccc(-c3c(-c4ccc(F)cc4)ncn3C3CCNCC3)n2)c1C	> 25 µM
N#Cc1c(-c2ccc(Cl)cc2)n(O)c2ccccc12	> 100 µM
Cc1ccc(-c2nc(SCC(=O)O)n[nH]2)cc1	> 100 µM
Cc1cccc2c1Oc1cc(Cl)ccc1C2NC(=O)CCN1CCN(CCO)CC1 (stereo not drawn)	31 µM
N/N=C1\C(=O)N(C2CCCCC2)C(=O)C1C(=O)NC1CCCCC1 (stereo not drawn)	> 100 µM

Reported TGI for N#CC(C(=O)/C(=N\Nc1nc(=S)[nH]n1N)C(C#N)c1ccc(Cl)cc1)c1ccc(Cl)cc1 (stereo not drawn) : what is it?
> 100 µM

###

Test system: U251 CNS
METHOD DESCRIPTION: NCI tumour cell line growth inhibition, 48 h
OUTCOME MEASURE: TGI

MOLECULE	REPORTED RESULT
C=C(C)[C@@H]1CC[C@]2(C)[C@H](C(=O)C=C3[C@@H]4C[C@](C)(C(=O)N5CCN(C)CC5)CC[C@]4(C)CC[C@]32C)[C@@]1(C)CCC#N	12.7 µM
COc1cc(-c2oc3c(OC)c(O)c(OC)c(O)c3c(=O)c2OC)cc(O)c1OC	> 100 µM
O=[N+]([O-])c1cccc2nc3ccccc3c(NCCc3cccc[n+]3[O-])c12	0.145 µM
C1CCN(CCC2CCCCN2)CC1 (stereo not given)	> 100 µM
N#CCCN(CCC#N)c1ccc(C(N=Nc2ccccc2)=Nc2ccccc2)cc1	> 100 µM
CCCCCC(O)C1C(=O)OC(C)C(O)/C=C/C=C/C=C/C=C\C=C(\C)C(O)CC(O)CC(O)CC(O)CC(O)CC(O)CC1O (stereo not given)	> 100 µM
CCOC(=O)c1csc(NC(=O)CCN2CCCCC2)n1	> 100 µM
COc1ccc(C2C3C(=O)C=CC(=O)C3[C@@H]2C)cc1OC (stereo not given in full)	> 100 µM

Please report TGI for every entry that follows.
1. CC(N)C(C)Cc1ccccc1 (stereo not given)
2. CC1(C)N=C(C(N)=O)c2ncn(-c3ccccc3)c2N1

1: > 100 µM; 2: > 100 µM

###

System: TK-10 renal
METHOD DESCRIPTION: NCI tumour cell line growth inhibition, 48 h
OUTCOME MEASURE: TGI

COMPOUND	TGI
NC(CSC(c1ccccc1)(c1ccccc1)c1ccc(Cl)cc1)C(=O)O (stereo unspecified)	64.7 µM
COc1cc(CCCOC(=O)/C=C/c2ccc(O)c(O)c2)cc(O)c1O	> 100 µM
C[C@]12CCC[C@H](Cl)C1(O)C[C@H](C(=O)O)CC2 (stereo partly specified)	> 100 µM
COC1(OC)CC2C=C(S(=O)(=O)c3ccccc3)C1N(Cc1ccccc1)C2=O (stereo unspecified)	66.4 µM
CCOC(=O)c1csc(NC(=O)CCN2CCCCC2)n1	> 100 µM

Turning to the following compound.
Recorded TGI for `CN(NC(=O)CCCl)C1=NCCN1` with TK-10 renal, please?
> 100 µM

###

Test system: HCT-116 colon
METHOD DESCRIPTION: NCI tumour cell line growth inhibition, 48 h; in the data active = GI50 below about 0.43 µM; inactive = the rest
Outcome field: choose from active, inactive

Would you please look over these solved cases?
COMPOUND	MEASUREMENT TARGET	ASSIGNED LABEL
NC(=NCCCOc1ccc(Cl)cc1)Nc1ccc(Cl)cc1	HCT-116 colon	inactive
CCN(CC)CCCNc1cccc2c(SCc3ccccc3)ccnc12	HCT-116 colon	inactive
NC(CSC(c1ccccc1)(c1ccccc1)c1ccc(Cl)cc1)C(=O)O (stereo unspecified)	HCT-116 colon	active

Just curious, what result did `CCCCCCCC/C=C/CCCCCCCC1=NCC[N+]1(CCO)CCO` get here?
inactive

Check the results log: what was the call for COCC1CCCN1c1ccc(/C=C(/C#N)C(N)=S)cc1 (stereo unspecified) ?
inactive

Any idea what this test logged for `COc1ccc(C(=O)c2ccc(OC)c(OC)c2OC)cc1` ?
inactive

###

Tested on: RXF 393 renal
METHOD DESCRIPTION: NCI tumour cell line growth inhibition, 48 h; in the data active = GI50 below about 0.43 µM; inactive = the rest
Return exactly one item of active, inactive

Illustrative cases are given below, each with its answer.
COMPOUND	ASSIGNED LABEL
NC(=NCCCOc1ccc(Cl)cc1)Nc1ccc(Cl)cc1	inactive
CC(=O)N1CC(Nc2ccc(OC(F)(F)F)cc2)=CC1=O	inactive
O=C1OCC(c2cccs2)=C1Cl	inactive
O=C(OCc1ccccc1)N1CCN(/[N+]([O-])=N/Oc2ccc([N+](=O)[O-])cc2[N+](=O)[O-])CC1	inactive

Which outcome did this test record for the compound NC(CSC(c1ccccc1)(c1ccccc1)c1ccc(Cl)cc1)C(=O)O (stereo not drawn) ?
active

What did this assay record as the result for Cc1ccc(C2NC(=S)NC3=C2CCOc2c3ccc3ccccc23)cc1 (stereo not drawn) ?
inactive

GET /call?item= `N#Cc1c(-c2ccc(Cl)cc2)n(O)c2ccccc12` returns the recorded outcome of this test.
inactive

// outcome(item) with item = `CCN(CC)c1cc(/C=C/c2ccc(OC)c(OC)c2)nc2cc(F)c(F)cc12`
inactive

###

System: ACHN renal
METHOD DESCRIPTION: NCI tumour cell line growth inhibition, 48 h; in the data active means GI50 below about 0.43 µM; inactive means the rest
Bench note: report the call from active, inactive

MOLECULE	ASSIGNED LABEL
CCOC(=O)c1sc2nc3sc(N=Nc4ccc(Cl)cc4)c(O)n3c(=S)c2c1C	inactive
COc1ccc(-c2ccc(/C=N/n3c(COc4ccccc4Cl)nn(CN4CCN(C)CC4)c3=S)o2)c([N+](=O)[O-])c1	inactive
CCC(C)n1cc(C)c2c(C(=O)NCc3c(C)cc(C)[nH]c3=O)cc(Br)cc21 (stereo not drawn)	inactive

Per the records of this test, what outcome belongs to `CCCCCCCC/C=C/CCCCCCCC1=NCC[N+]1(CCO)CCO` ?
inactive

Hello, I am checking results. What call was entered for NC(CSC(c1ccccc1)(c1ccccc1)c1ccc(Cl)cc1)C(=O)O (stereo not drawn) ?
inactive

// outcome(item) with item = `OCCCN=NNc1ccc(-c2nc3ccccc3[nH]2)cc1`
inactive

Give the logged outcome of this assay for the following molecule: `C=C(C)[C@@H]1CC[C@]2(C)[C@H](C(=O)C=C3[C@@H]4C[C@](C)(C(=O)N5CCN(C)CC5)CC[C@]4(C)CC[C@]32C)[C@@]1(C)CCC#N`
inactive

State the result this test recorded for `CC(C)[C@@]12C[C@@H](OC(=O)[C@H]3CO3)[C@@](C)(O1)[C@@H]1CC[C@@H](C)[C@H]1[C@@H]2OC(=O)/C=C/c1ccccc1` .
active

###

Give TGI for every item shown.
Tested on: MALME-3M melanoma
METHOD DESCRIPTION: NCI tumour cell line growth inhibition, 48 h

# annotated cases, reported TGI shown
COMPOUND	MEASUREMENT TARGET	TGI
COc1cccc(NC(=S)Nn2c(C)nc3ccccc3c2=O)c1	MALME-3M melanoma	> 100 µM
CN(C)c1ccc(N=Cc2c([O-])ccc3ccccc23)cc1.[C-]#[O+].[C-]#[O+].[Ir]	MALME-3M melanoma	41.7 µM
O=C(CO)CC(=O)C(=O)Nc1nc([N+](=O)[O-])cs1	MALME-3M melanoma	> 100 µM
COCC1CCCN1c1ccc(/C=C(/C#N)C(N)=S)cc1 (stereo unspecified)	MALME-3M melanoma	> 100 µM
CCC1=CC2CN3CCc4c([nH]c5ccccc45)C(C(=O)OC)(C2)C13 (stereo unspecified)	MALME-3M melanoma	92.8 µM

Count: 4. Required value per item: TGI.
1. CN1C2(c3ccccc3)c3c(-c4ccccc4)sc(-c4ccccc4)c3C1(c1ccccc1)C1C(=O)N(c3ccccc3)C(=O)C12 (stereo unspecified)
2. CC1(C)N=C(C(N)=O)c2ncn(-c3ccccc3)c2N1
3. COc1ccc(/C(Cl)=C(\C=O)c2ccc([N+](=O)[O-])cc2)cc1OC
4. CCOC(=O)C(=O)Nc1c(F)cc(F)cc1Br

> 100 µM
> 100 µM
41 µM
> 100 µM

Report TGI for every entry below.
1. O=P(O)(O)c1ccccc1 (tested in a mixture with another compound)
2. COC(=O)C1=C(C(=O)OC)C2(OC(C)=O)c3ccccc3-c3ccccc3C12 (stereo unspecified)
3. CCCC/C=C/C1Cc2ccccc2CN1S(=O)(=O)c1ccc(C)cc1 (stereo unspecified)
4. CCSCC(N)C(=O)O (stereo unspecified)
5. Cc1ccc(NC(=O)c2cccc([N+](=O)[O-])c2O)c([N+](=O)[O-])c1

1: > 100 µM; 2: 5.83 µM; 3: > 100 µM; 4: > 100 µM; 5: 30.8 µM

Please supply TGI for each of the following items, keeping them in order.
1. Cc1ccc(-c2c(C#N)c(S)n(NS(=O)(=O)c3ccc(C)cc3)c(=O)c2C#N)cc1
2. Cn1c2c(c3ccccc31)C1CCCCC1C1C(=O)NC(=O)C21 (stereo unspecified)
3. CCOc1ccc([C@@H]2[C@@H](Oc3ccccc3)C(=O)N2c2cc(OC)c(OC)c(OC)c2)cc1
4. C/C(=N\NC(=O)c1ccncc1)c1ccc2ccccc2c1O
5. CC1(c2nc3cc(Cl)c(Cl)cc3[nH]2)CCC(CO)C(C)(C)O1 (stereo unspecified)
6. O=C(CC(=O)N1N=C(N2CCCCC2)CC1c1ccccc1)Nc1ccc(Cl)cc1 (stereo unspecified)

["38.7 µM", "> 100 µM", "> 100 µM", "43.2 µM", "84 µM", "> 100 µM"]

Cited source: PubChem BioAssay (NCI)
